Data origin, for the record: patent US9663526B2

# TESTED_TARGET: recombinant human kinase domain of JAK2 (Homo sapiens (Human))
# Sequence (O60674 849-1124): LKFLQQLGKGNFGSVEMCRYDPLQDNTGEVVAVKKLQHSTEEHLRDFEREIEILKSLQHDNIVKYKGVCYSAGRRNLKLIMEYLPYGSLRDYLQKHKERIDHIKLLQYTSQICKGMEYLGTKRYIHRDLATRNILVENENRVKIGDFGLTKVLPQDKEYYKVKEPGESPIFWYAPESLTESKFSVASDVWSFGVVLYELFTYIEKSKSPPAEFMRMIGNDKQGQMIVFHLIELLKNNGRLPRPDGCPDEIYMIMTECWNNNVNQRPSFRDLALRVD
# TEST_METHOD_NOTES: JAK Caliper enzyme assay at 1 mM ATP (JAK2);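 note: microfluidic mobility-shift read-out of fluorescent synthetic peptide phosphorylation, percent product converted from peak heights, room temperature, DMSO-only wells as uninhibited baseline, inhibition curve fit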
# Type: biochemical
VALUE_TYPE: log10(IC50) (log10 of the value in nM)
Would you kindly interpret these values as log10 of IC50 expressed in nM?

For orientation, consider the following solved cases.
# query: log10(IC50) | item CCNC(=O)N1[C@@H]2CC[C@H]1CN(c1ccnc(Nc3cnsc3)n1)C2 [Example 74] | system: recombinant human kinase domain of JAK2 (Homo sapiens (Human)) 2.84

Query C[C@@H]1[C@@H]2CN(c3nc(Nc4cnn(C5COC5)c4)ncc3F)C[C@]12NC(=O)[C@@H]1CC1(F)F [Example 99] next 2.59

Further cases:
# query: log10(IC50) | item CC(CC#N)N1[C@@H]2CC[C@H]1CN(c1ccnc(Nc3cnn(C)c3)n1)C2 (stereo partly shown) [Example 81] | system: recombinant human kinase domain of JAK2 (Homo sapiens (Human)) 2.78

Query Cn1cc(Nc2nccc(N3C[C@H]4CC[C@@H](C3)N4C[C@@H]3CC3(F)F)n2)cn1 [Example 64] next 2.51

Query C[C@@H](CO)c1ccc(Nc2nccc(N3C[C@H]4CC[C@@H](C3)N4C(=O)[C@@H]3CC3(F)F)n2)cn1 (single isomer, unassigned) [Example 11] next 2.15

Query C[C@H](CO)c1ccc(Nc2ncc(F)c(N3C[C@H]4[C@@H](C)[C@@]4(NC(=O)C4CC4)C3)n2)cn1 (single isomer, unassigned) [Example 104] next 3.50

Query CCNC(=O)N1[C@@H]2CC[C@H]1CN(c1ccnc(Nc3cnc(C(=O)NC)c(Cl)c3)n1)C2 [Example 75] next 3.11

* * *

# TESTED_TARGET: recombinant human kinase domain of JAK3 (Homo sapiens (Human))
# Sequence (P52333 822-1111): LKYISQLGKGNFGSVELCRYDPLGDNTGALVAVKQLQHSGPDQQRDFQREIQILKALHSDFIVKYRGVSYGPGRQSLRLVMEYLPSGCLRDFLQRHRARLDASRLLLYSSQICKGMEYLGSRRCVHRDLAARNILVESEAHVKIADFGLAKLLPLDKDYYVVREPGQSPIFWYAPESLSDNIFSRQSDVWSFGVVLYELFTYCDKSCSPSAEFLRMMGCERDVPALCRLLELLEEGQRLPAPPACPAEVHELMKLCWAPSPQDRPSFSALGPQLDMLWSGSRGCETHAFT
# TEST_METHOD_NOTES: JAK Caliper enzyme assay at 1 mM ATP (JAK3);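 note: microfluidic mobility-shift readout of synthetic peptide phosphorylation, percent product converted from peak heights, normalized to DMSO-only wells as uninhibited baseline, room temperature incubation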
# Format: biochemical
# CONDITION_INFO: 1 mM ATP; read-out: IC50 (nM) JAK3
The entries below come with measured IC50 values attached.

So what's the measured IC50 for this one? "CCNC(=O)N1[C@@H]2CC[C@H]1CN(c1ccnc(Nc3cnc(C(=O)NC)c(Cl)c3)n1)C2" > 10000 nM

Query "O=C([C@@H]1CC1(F)F)N1[C@@H]2CC[C@H]1CN(c1ccnc(Nc3cnc(N4CC[C@H](O)C4)c(F)c3)n1)C2" next > 10000 nM

Query "CNC(=O)c1ncc(Nc2nccc(N3C[C@H]4CC[C@@H](C3)N4C(=O)NCC(F)(F)F)n2)cc1C" next 4430 nM

Query "Cn1cc(Nc2nccc(N3C[C@H]4CC[C@@H](C3)N4C(=O)C3(F)CC3)n2)cn1" next 4160 nM

Further cases:
So what's the measured IC50 for this one? "CCNC(=O)N1[C@@H]2CC[C@H]1CN(c1ccnc(Nc3cnsc3)n1)C2" > 10000 nM

Query "Cn1cc(Nc2nccc(N3C[C@H]4CC[C@@H](C3)N4Cc3ccns3)n2)cn1" next 8620 nM

Query "CCNC(=O)c1ccc(Nc2nccc(N3CC4CC(C3)N4C(=O)C(F)(F)F)n2)cc1C" next > 10000 nM

Query "CNC(=O)c1ncc(Nc2ncc(F)c(N3C[C@@H]4[C@H](C)[C@]4(NC(=O)C4CC4)C3)n2)cc1C" next > 10000 nM

Query "Cn1cc(Nc2nccc(N3C[C@H]4CC[C@@H](C3)N4C(=O)C3CC(F)(F)C3)n2)cn1" next > 10000 nM

Query C[C@H](CO)c1ccc(Nc2ncc(F)c(N3C[C@H]4[C@@H](C)[C@@]4(NC(=O)C4CC4)C3)n2)cn1 (single isomer, unassigned) next > 10000 nM

Query "Cn1cc(Nc2nccc(N3C[C@H]4CC[C@@H](C3)N4C(N)=O)n2)cn1" next > 10000 nM

Query "CCNC(=O)c1ccc(Nc2ncc(F)c(N3CC4CC(C3)N4C(=O)C(C)(F)F)n2)cc1C" next 4870 nM

Query "O=C([C@@H]1CC1(F)F)N1[C@@H]2CC[C@H]1CN(c1ccnc(Nc3cnc(CCO)c(F)c3)n1)C2" next > 10000 nM
